Origin of values: the supplement of paper PMC11061612

# System: IA-LM (Non-Small Cell Lung Carcinoma)
# test name: combination Emax (second highest fraction inhibited in the dose matrix, 72 h); higher = more inhibition; extreme values may be limits of the assay
Response key: TRUE means combination Emax >= 0.4; FALSE means combination Emax < 0.4.

Look over these answered cases.
Entry CCN(CCO)CCCOc1ccc2c(Nc3cc(CC(=O)Nc4cccc(F)c4)[nH]n3)ncnc2c1 [AZD2811] + O=C(c1cc(Cc2n[nH]c(=O)c3ccccc23)ccc1F)N1CCN(C(=O)C2CC2)CC1 [Olaparib] (first compound max 1 µM, 7x7, partner max 10 µM) : is its combination Emax no less than 0.4?
FALSE

Another: Cc1cc2ncnn2cc1Nc1ncc2c(n1)n(C1CCOCC1)c(=O)n2C [AZD7648] + CN(C)CCCOc1ccc(-c2ccc3ncc4c(c3c2)n(C2CCOCC2)c(=O)n4C)cn1 [AZD0156] (first compound max 10 µM, 7x7, partner max 1 µM)
FALSE

How about COc1cccc(OCCCN)c1-c1cc(Nc2cnc(C#N)cn2)n[nH]1 [Prexasertib] + Cc1cc2ncnn2cc1Nc1ncc2c(n1)n(C1CCOCC1)c(=O)n2C [AZD7648] (first compound max 1 µM, 7x7, partner max 10 µM) ?
TRUE

Query CN(CCO)CC[C@H](CSc1ccccc1)Nc1ccc(S(=O)(=O)NC(=O)c2ccc(N3CCC([C@@H](O)c4ccccc4-c4ccc(Cl)cc4)CC3)cc2)cc1S(=O)(=O)C(F)(F)F [AZD4320] + Cc1cc2ncnn2cc1Nc1ncc2c(n1)n(C1CCOCC1)c(=O)n2C [AZD7648] (first compound max 1 µM, 7x7, partner max 10 µM) next
TRUE

// next record CN(CCO)CC[C@H](CSc1ccccc1)Nc1ccc(S(=O)(=O)NC(=O)c2ccc(N3CCC([C@@H](O)c4ccccc4-c4ccc(Cl)cc4)CC3)cc2)cc1S(=O)(=O)C(F)(F)F [AZD4320] + C=CCn1c(=O)c2cnc(Nc3ccc(N4CCN(C)CC4)cc3)nc2n1-c1cccc(C(C)(C)O)n1 [AZD1775] (first compound max 1 µM, partner max 1 µM)
TRUE

Continuing:
Hi, just wondering whether NC1(C(=O)N[C@@H](CCO)c2ccc(Cl)cc2)CCN(c2ncnc3[nH]ccc23)CC1 [Capivasertib] + Cn1cnc2c(F)c(Nc3ccc(Br)cc3Cl)c(C(=O)NOCCO)cc21 [Selumetinib] (first compound max 10 µM, 7x7, partner max 10 µM) shows combination Emax of 0.4 or higher.
FALSE

Here is the next compound: O=C(c1cc(Cc2n[nH]c(=O)c3ccccc23)ccc1F)N1CCN(C(=O)C2CC2)CC1 [Olaparib] + Cc1c2c(nn1C)CSCc1cc(n(C)n1)CSc1cc(c3ccccc3c1)OCCCc1c(C(=O)O)n(C)c3c-2c(Cl)ccc13 [AZD5991] (first compound max 10 µM, 7x7, partner max 1 µM)
FALSE
